Details: in isopropanol, 288.15 K
parameter: solubility (mole fraction)

input: Look up solubility (mole fraction): NNC(=O)c1ccncc1
output: 0.00253

---

Conditions: in ethyl acetate, 323.15 K
parameter: solubility (mole fraction)
Please state the value as a number alone, without comment.

input: solubility (mole fraction) for NNC(=O)c1ccncc1 ?
output: 0.00374

---

Conditions: in DMF, 318.15 K
parameter: solubility (mole fraction)
Reply: number alone, nothing else.

input: GET /values?readout=solubility (mole fraction)&item= NNC(=O)c1ccncc1
output: 0.0567

---

Conditions: in DMF, 283.15 K
parameter: solubility (mole fraction)
Please reply with the value in numeric form only.

input: Tell me the measured solubility (mole fraction) of NNC(=O)c1ccncc1 , please.
output: 0.023

---

Conditions: in acetonitrile, 303.15 K
parameter: solubility (mole fraction)

input: # lookup: solubility (mole fraction) of NNC(=O)c1ccncc1
output: 0.00169

---

Details: in ethanol, 303.15 K
parameter: solubility (mole fraction)
API doc: respond with a numeric literal and nothing else, no unit.

input: Dear colleague, I am looking for the recorded solubility (mole fraction) of the following molecule: NNC(=O)c1ccncc1
output: 0.00549

---

Details: in ethanol, 308.15 K
parameter: solubility (mole fraction)
Returns: the value as a bare number; no unit string appended.

input: // returns reported solubility (mole fraction) for input NNC(=O)c1ccncc1
output: 0.00646

---

Conditions: in water, 288.15 K
parameter: solubility (mole fraction)
The answer should be written as a number, with no unit following it.

input: Entry under review: NNC(=O)c1ccncc1 . Reported solubility (mole fraction)?
output: 0.0134

---

Conditions: in DMF, 303.15 K
parameter: solubility (mole fraction)
Respond using a number only.

input: Recorded solubility (mole fraction) of NNC(=O)c1ccncc1 , please.
output: 0.0412

---

Details: in ethyl acetate, 293.15 K
parameter: solubility (mole fraction)
Note: the reply should be a number with no unit written.

input: What does the record list as solubility (mole fraction) for NNC(=O)c1ccncc1 ?
output: 0.00136

---

Details: in isopropanol, 308.15 K
parameter: solubility (mole fraction)
Please respond with just the number, no unit label.

input: # lookup: solubility (mole fraction) of NNC(=O)c1ccncc1
output: 0.00558

---

Details: in ethyl acetate, 313.15 K
parameter: solubility (mole fraction)
Give only the figure.

input: Looking for the measured solubility (mole fraction) of NNC(=O)c1ccncc1 , can you help?
output: 0.00279

---

Conditions: in water, 303.15 K
parameter: solubility (mole fraction)
Respond numerically, and do not add a unit to the figure.

input: Any idea what solubility (mole fraction) was measured for NNC(=O)c1ccncc1 ?
output: 0.024

---

Details: in ethyl acetate, 288.15 K
parameter: solubility (mole fraction)

input: Need solubility (mole fraction), item NNC(=O)c1ccncc1
output: 0.0012

---

Settings: in ethanol, 293.15 K
parameter: solubility (mole fraction)
Output: the number by itself.

input: Please look up its solubility (mole fraction): NNC(=O)c1ccncc1
output: 0.00384

---

Conditions: in water, 313.15 K
parameter: solubility (mole fraction)
Keep it simple and answer with nothing but the number.

input: State the recorded solubility (mole fraction) for this entry: NNC(=O)c1ccncc1
output: 0.0354

---

Conditions: in acetonitrile, 313.15 K
parameter: solubility (mole fraction)
Lab note: write the figure by itself, no unit.

input: Returns the measured solubility (mole fraction) for the input compound. Input: NNC(=O)c1ccncc1
output: 0.00241

---

Settings: in isopropanol, 293.15 K
parameter: solubility (mole fraction)
Write the number on its own, no unit after it.

input: Quick one: solubility (mole fraction) of NNC(=O)c1ccncc1 ?
output: 0.00314

---

Conditions: in DMF, 293.15 K
parameter: solubility (mole fraction)
Write no unit; give the number alone.

input: Name the reported solubility (mole fraction) value associated with the compound NNC(=O)c1ccncc1
output: 0.031

---

Conditions: in ethanol, 288.15 K
parameter: solubility (mole fraction)
Respond using a number only.

input: What solubility (mole fraction) value was documented for this molecule, NNC(=O)c1ccncc1 ?
output: 0.00318

---

Settings: in ethyl acetate, 308.15 K
parameter: solubility (mole fraction)
// response body must contain only the number

input: Returns the measured solubility (mole fraction) for the input molecule. Input: NNC(=O)c1ccncc1
output: 0.00234

---

Conditions: in ethanol, 283.15 K
parameter: solubility (mole fraction)
Lab note: jot down the number only; don't add units.

input: Which solubility (mole fraction) is reported for this molecule? NNC(=O)c1ccncc1
output: 0.00266

---

Settings: in ethyl acetate, 318.15 K
parameter: solubility (mole fraction)
Simply state the number, no unit and no words.

input: Param item = NNC(=O)c1ccncc1 ; retrieve measured solubility (mole fraction).
output: 0.00331

---

Conditions: in n-propanol, 293.15 K
parameter: solubility (mole fraction)
Please give only the number in your answer, with no unit.

input: Form field: reported solubility (mole fraction) of NNC(=O)c1ccncc1
output: 0.00329

---

Conditions: in methanol, 303.15 K
parameter: solubility (mole fraction)
Form rule: numeric answer, no unit written next to it.

input: Any idea what its solubility (mole fraction) is? The compound is NNC(=O)c1ccncc1
output: 0.0112

---

Details: in methanol, 288.15 K
parameter: solubility (mole fraction)

input: Record request: solubility (mole fraction) value, item NNC(=O)c1ccncc1
output: 0.0067

---

Details: in water, 293.15 K
parameter: solubility (mole fraction)
Respond with the number and no other words.

input: Give its solubility (mole fraction) value. Item: NNC(=O)c1ccncc1
output: 0.0159

---

Settings: in acetonitrile, 298.15 K
parameter: solubility (mole fraction)
Just the number, please.

input: So what does the record say about solubility (mole fraction) for NNC(=O)c1ccncc1 ?
output: 0.00141

---

Conditions: in acetonitrile, 293.15 K
parameter: solubility (mole fraction)
// return a plain number; no unit text

input: solubility (mole fraction) lookup needed for NNC(=O)c1ccncc1 , thanks.
output: 0.00109

---

Conditions: in isopropanol, 313.15 K
parameter: solubility (mole fraction)
Reply briefly: the number, and no unit.

input: Need solubility (mole fraction), item NNC(=O)c1ccncc1
output: 0.00651

---

Settings: in acetonitrile, 323.15 K
parameter: solubility (mole fraction)
Please give only the number in your answer, with no unit.

input: What value of measured solubility (mole fraction) is listed for NNC(=O)c1ccncc1 ?
output: 0.00331

---

Details: in isopropanol, 303.15 K
parameter: solubility (mole fraction)
Lab note: jot the number down without any unit.

input: # lookup: solubility (mole fraction) of NNC(=O)c1ccncc1
output: 0.00453

---

Conditions: in DMF, 288.15 K
parameter: solubility (mole fraction)

input: Quick one: solubility (mole fraction) of NNC(=O)c1ccncc1 ?
output: 0.027

---

Conditions: in methanol, 298.15 K
parameter: solubility (mole fraction)

input: Reported solubility (mole fraction) for NNC(=O)c1ccncc1 : what is it?
output: 0.00961

---

Conditions: in n-propanol, 323.15 K
parameter: solubility (mole fraction)
Field format: numeric only.

input: Query: solubility (mole fraction); subject: NNC(=O)c1ccncc1
output: 0.00983

---

Conditions: in methanol, 293.15 K
parameter: solubility (mole fraction)
Hey, just send me the number, nothing else.

input: Give the measured solubility (mole fraction) of NNC(=O)c1ccncc1 .
output: 0.00797

---

Conditions: in ethanol, 323.15 K
parameter: solubility (mole fraction)
Could you keep your reply to the number by itself?

input: What does the data say about its solubility (mole fraction)? Entry: NNC(=O)c1ccncc1
output: 0.00996

---

Details: in water, 308.15 K
parameter: solubility (mole fraction)
Reply with the value as a number alone.

input: Looking for the measured solubility (mole fraction) of NNC(=O)c1ccncc1 , can you help?
output: 0.0296

---

Settings: in DMF, 313.15 K
parameter: solubility (mole fraction)
Give your answer as a number; write no unit.

input: solubility (mole fraction) lookup needed for NNC(=O)c1ccncc1 , thanks.
output: 0.0511

---

Conditions: in water, 283.15 K
parameter: solubility (mole fraction)
Keep the answer to the number alone.

input: Which solubility (mole fraction) reading was recorded for the compound NNC(=O)c1ccncc1 ?
output: 0.0106

---

Conditions: in ethyl acetate, 303.15 K
parameter: solubility (mole fraction)
Field format: numeric only.

input: Quick one: solubility (mole fraction) for NNC(=O)c1ccncc1 ?
output: 0.00195

---

Conditions: in water, 298.15 K
parameter: solubility (mole fraction)
Write the number on its own, no unit after it.

input: solubility (mole fraction) lookup needed for NNC(=O)c1ccncc1 , thanks.
output: 0.0198

---

Details: in n-propanol, 288.15 K
parameter: solubility (mole fraction)
Lab note: record the figure alone, no unit after it.

input: # input molecule: NNC(=O)c1ccncc1 ; wanted: its solubility (mole fraction)
output: 0.00264

---

Conditions: in water, 318.15 K
parameter: solubility (mole fraction)
Respond with the number and no other words.

input: Could you tell me which solubility (mole fraction) is on file for NNC(=O)c1ccncc1 ?
output: 0.0421
